The measurements presented in this section are drawn from PubChem BioAssay AID2060884.

System: NCI-H929 complex spheroids, viability % test/control
Experiment: Anticancer human tumor NCI-H929 cell line growth inhibition [RAS];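 further: compound exposure lasted seven days before viability was read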
Settings: curve of first compound; second compound 0.00316 µM
pIC50: −log10 of the molar value.
Below, each entry is listed with its recorded pIC50.

These solved cases illustrate the format of a correct answer.
COMPOUND	TESTED SYSTEM	REPORTED METRIC	OBSERVED VALUE
O=C(c1ccc(F)c(F)c1Nc1ccc(I)cc1F)N1CC(O)([C@@H]2CCCCN2)C1 + C=CC(=O)N1CCN(c2nc(OCC3CCCN3C)nc3c(F)c(-c4nc(N)cc(C)c4C(F)(F)F)c(Cl)cc23)C(C)C1	NCI-H929 complex spheroids, viability % test/control	pIC50	< 6.00
Cc1nc(N2CCC3(CC2)COC(C)C3N)c(CO)nc1Sc1ccnc(N)c1Cl (configuration not stated) + C=CC(=O)N1CCN(c2nc(OCC3CCCN3C)nc3c(F)c(-c4nc(N)cc(C)c4C(F)(F)F)c(Cl)cc23)C(C)C1	NCI-H929 complex spheroids, viability % test/control	pIC50	< 5.00
C=CC(=O)Nc1cc(Nc2nccc(-c3cn(C)c4ccccc34)n2)c(OC)cc1N(C)CCN(C)C + C=CC(=O)N1CCN(c2nc(OCC3CCCN3C)nc3c(F)c(-c4nc(N)cc(C)c4C(F)(F)F)c(Cl)cc23)C(C)C1	NCI-H929 complex spheroids, viability % test/control	pIC50	< 6.00
CC(=O)OC12COC1CC(O)C1(C)C(=O)C(O)C3=C(C)C(OC(=O)C(O)C(NC(=O)OC(C)(C)C)c4ccccc4)CC(O)(C(OC(=O)c4ccccc4)C21)C3(C)C (configuration not stated) + C=CC(=O)N1CCN(c2nc(OCC3CCCN3C)nc3c(F)c(-c4nc(N)cc(C)c4C(F)(F)F)c(Cl)cc23)C(C)C1	NCI-H929 complex spheroids, viability % test/control	pIC50	> 7.50
CC(Nc1ccc2c(c1)OCCn1cc(N3C(=O)OCC3C(F)F)nc1-2)C(N)=O (configuration not stated) + C=CC(=O)N1CCN(c2nc(OCC3CCCN3C)nc3c(F)c(-c4nc(N)cc(C)c4C(F)(F)F)c(Cl)cc23)C(C)C1	NCI-H929 complex spheroids, viability % test/control	pIC50	< 5.00

### Prompt Given the compound NC1c2ccccc2OC12CCN(c1cnc3c(N4CCCc5ncccc54)n[nH]c3n1)CC2 (configuration not stated) + C=CC(=O)N1CCN(c2nc(OCC3CCCN3C)nc3c(F)c(-c4nc(N)cc(C)c4C(F)(F)F)c(Cl)cc23)C(C)C1 , write its reported pIC50.
### Response < 5.00

### Prompt Given the compound CCN1CCN(Cc2ccc(Nc3ncc(F)c(-c4cc(F)c5nc(C)n(C(C)C)c5c4)n3)nc2)CC1 + C=CC(=O)N1CCN(c2nc(OCC3CCCN3C)nc3c(F)c(-c4nc(N)cc(C)c4C(F)(F)F)c(Cl)cc23)C(C)C1 , write its reported pIC50.
### Response < 6.00

###

Tested on: NCI-H929 complex spheroids, viability % test/control
Assay: Anticancer human tumor NCI-H929 cell line growth inhibition [RAS];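 further: compound exposure lasted seven days before viability was read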;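 on viability, T/C: 100% = DMSO vehicle control viability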
Conditions: second compound 0.03 µM; first compound 0.1 µM; stronger effect = lower value
REPORTED METRIC: viability, T/C (%)
Write the answer as a number in %, unit excluded.

### Prompt Given the molecule C=CC(=O)N1CCN(c2nc(OCC3CCCN3C)nc3c(F)c(-c4nc(N)cc(C)c4C(F)(F)F)c(Cl)cc23)C(C)C1 (centres undefined) + CCn1c(-c2cccnc2C(C)OC)c2c3cc(ccc31)N1CCOC(CC(NC(=O)C(C(C)C)N(C)C(=O)C3(F)CCN(C(=O)C#CC(C)(C)N(C)C)CC3)C(=O)N3CCCC(N3)C(=O)OCC(C)(C)C2)C1 , write its reported viability, T/C.
### Response 105

### Prompt Given the molecule C[C@@H](NC(=O)c1ncnc(N)c1Cl)c1ncc(C(=O)Nc2cc(C(F)(F)F)c(Cl)cn2)s1 + CCn1c(-c2cc(N3CCN(C)CC3)cnc2C(C)OC)c2c3cc(ccc31)-c1csc(n1)CC(NC(=O)C1CC1C)C(=O)N1CCCC(N1)C(=O)OCC(C)(C)C2 , write its reported viability, T/C.
### Response 121

### Prompt Given the molecule Nc1ccn(C2OC(CO)C(O)C2(F)F)c(=O)n1 (centres undefined) + CCn1c(-c2cc(N3CCN(C)CC3)cnc2C(C)OC)c2c3cc(ccc31)-c1csc(n1)CC(NC(=O)C1CC1C)C(=O)N1CCCC(N1)C(=O)OCC(C)(C)C2 , write its reported viability, T/C.
### Response 1.5

### Prompt Given the molecule CCC(CC)c1cc(NC2CCC(N)C2)n2nccc2n1 (centres undefined) + CCn1c(-c2cccnc2C(C)OC)c2c3cc(ccc31)N1CCOC(CC(NC(=O)C(C(C)C)N(C)C(=O)C3(F)CCN(C(=O)C#CC(C)(C)N(C)C)CC3)C(=O)N3CCCC(N3)C(=O)OCC(C)(C)C2)C1 , write its reported viability, T/C.
### Response 93.8
